These entries and their values trace back to the antibiotic and cytotoxicity screens of Wong et al. (2023).

- Test system: HepG2
- assay-summary: cytotoxicity call (relative viability < 0.9)
- particulars: 10 µM
The campaign covered roughly 39,000 compounds. About 3,300 (8.5%) were called active. Many of the other results were omitted from the sample, so actives are more common in it than they were.
experimental-endpoint: cytotoxicity call

[[record]]
record_smiles = "O=C(C[C@@H]1C=C[C@@H](NC(=O)c2cccnc2)[C@@H](CO)O1)NCc1ccncn1"
measured_result = "inactive"

[[record]]
record_smiles = "CN(C)c1nc(N)nc(CSc2nnnn2C)n1"
measured_result = "inactive"

[[record]]
record_smiles = "COc1ccc(NC(=O)N(C)C[C@@H]2OCCCC[C@@H](C)Oc3ccc(NS(=O)(=O)c4c(C)noc4C)cc3C(=O)N([C@@H](C)CO)C[C@H]2C)cc1"
measured_result = "inactive"

[[record]]
record_smiles = "CO[C@H]1CN(C)C(=O)c2ccc(NS(=O)(=O)c3ccccc3)cc2OC[C@H](C)N(C(=O)NC(C)C)C[C@@H]1C"
measured_result = "inactive"

[[record]]
record_smiles = "Cc1ccc(S(=O)(=O)N[C@@H]2CC[C@@H](CC(=O)NCc3ccc(Cl)c(Cl)c3)O[C@@H]2CO)cc1"
measured_result = "inactive"


----------
- Tested on: HepG2
- assay-summary: cytotoxicity call (relative viability < 0.9)
- particulars: 10 µM
Hit rate of the full screen: of about 39,000 compounds, about 3,300 (8.5%) were called active. This excerpt belongs to a sample that is enriched for actives.
Labels: 1.0 = active, 0.0 = inactive

[[record]]
record_smiles = "N=C(NO)NCC[C@H](N)C(=O)O"
assigned_category = 0.0

[[record]]
record_smiles = "C[C@@H]1CCCCO[C@H](CN(C)CC2CCCCC2)[C@H](C)CN([C@@H](C)CO)C(=O)c2cc(NC(=O)Nc3ccc(C(F)(F)F)cc3)ccc2O1"
assigned_category = 1.0

[[record]]
record_smiles = "CCCCOc1cc(C(=O)OCCN(CC)CC)ccc1N.Cl"
assigned_category = 0.0

[[record]]
record_smiles = "C[C@H]1CCCCO[C@H](CN(C)C(=O)Nc2ccc(F)cc2)[C@@H](C)CN([C@@H](C)CO)C(=O)c2cc(NS(=O)(=O)c3cccs3)ccc2O1"
assigned_category = 0.0

[[record]]
record_smiles = "Cc1noc(C)c1NC(=O)Nc1ccc2c(c1)C(=O)N([C@H](C)CO)C[C@@H](C)[C@H](CN(C)C(=O)Nc1ccc(C(F)(F)F)cc1)OCCCC[C@@H](C)O2"
assigned_category = 0.0

[[record]]
record_smiles = "C[C@H](CO)N1C[C@H](C)[C@H](CN(C)Cc2ccc(Cl)c(Cl)c2)Oc2ccc(NC(=O)Nc3ccccc3)cc2CC1=O"
assigned_category = 1.0

[[record]]
record_smiles = "C[C@@H]1CCCCO[C@H](CN(C)CC2CCCCC2)[C@H](C)CN([C@H](C)CO)C(=O)c2cc(NC(=O)Nc3ccc(C(F)(F)F)cc3)ccc2O1"
assigned_category = 1.0


----------
- Test system: HepG2
- assay-summary: cytotoxicity call (relative viability < 0.9)
- particulars: 10 µM
Screen size: about 39,000 compounds; about 3,300 (8.5%) were called active. The list comes from a sample in which actives are over-represented; it also holds close analogues and randomly drawn compounds.
Labels: active, inactive

[[record]]
record_smiles = "C[C@@H]1CN([C@H](C)CO)C(=O)c2cccc(NS(C)(=O)=O)c2O[C@@H]1CN(C)C(=O)Nc1ccc(F)cc1"
tested_target = "HepG2"
assigned_category = "inactive"

[[record]]
record_smiles = "CS(=O)(=O)Nc1ccc2c(c1)C(=O)NC2=O"
tested_target = "HepG2"
assigned_category = "inactive"

[[record]]
record_smiles = "C[C@@H]1CCCCO[C@@H](CN(C)Cc2ccc(C(F)(F)F)cc2)[C@H](C)CN([C@H](C)CO)C(=O)c2cc(N(C)C)ccc2O1"
tested_target = "HepG2"
assigned_category = "inactive"

[[record]]
record_smiles = "CO[C@H]1CN(C)C(=O)c2cc(NC(=O)Nc3ccccc3)ccc2OC[C@@H](C)N(C(=O)CN(C)C)C[C@@H]1C"
tested_target = "HepG2"
assigned_category = "inactive"

[[record]]
record_smiles = "COc1ccccc1CNC(=O)C[C@H]1C[C@H]2c3cc(NS(=O)(=O)c4ccc(F)cc4)ccc3O[C@H]2[C@@H](CO)O1"
tested_target = "HepG2"
assigned_category = "inactive"

[[record]]
record_smiles = "C[C@H]1CN([C@@H](C)CO)C(=O)c2cccc(NC(=O)c3nc4ccccc4s3)c2O[C@H]1CN(C)S(=O)(=O)c1cn(C)cn1"
tested_target = "HepG2"
assigned_category = "inactive"

[[record]]
record_smiles = "C[C@H](CO)N1C[C@H](C)[C@@H](CN(C)C(=O)Nc2cccc3ccccc23)OCCCC[C@H](C)Oc2ccc(NC(=O)Nc3ccccc3)cc2C1=O"
tested_target = "HepG2"
assigned_category = "inactive"

[[record]]
record_smiles = "CC1(C)C=Cc2c(nc3ccccc3c2NCc2ccccc2)C1"
tested_target = "HepG2"
assigned_category = "active"

[[record]]
record_smiles = "O=C(O)C1CCOCC1"
tested_target = "HepG2"
assigned_category = "inactive"

[[record]]
record_smiles = "Cc1cccc(S(=O)(=O)N2C[C@H](O)COC[C@H]3O[C@H](CC(=O)NCCCN4CCOCC4)CC[C@@H]32)c1"
tested_target = "HepG2"
assigned_category = "inactive"

[[record]]
record_smiles = "COc1ccc(NC(=O)N(C)C[C@@H]2Oc3ccc(NC(=O)CCCN(C)C)cc3C(=O)N([C@H](C)CO)C[C@@H]2C)cc1"
tested_target = "HepG2"
assigned_category = "inactive"

[[record]]
record_smiles = "C[C@H]1CN([C@@H](C)CO)C(=O)Cc2cc(NC(=O)Nc3cccc4ccccc34)ccc2O[C@H]1CN(C)S(=O)(=O)c1cccs1"
tested_target = "HepG2"
assigned_category = "inactive"

[[record]]
record_smiles = "Cc1noc(C)c1NC(=O)N(C)C[C@H]1Oc2ccc(NC(=O)NC(C)C)cc2CC(=O)N([C@H](C)CO)C[C@H]1C"
tested_target = "HepG2"
assigned_category = "inactive"

[[record]]
record_smiles = "C[C@@H]1CN([C@@H](C)CO)C(=O)c2cc(C#CCN(C)C)cnc2O[C@H]1CN(C)Cc1cccc(C(=O)O)c1"
tested_target = "HepG2"
assigned_category = "inactive"

[[record]]
record_smiles = "COc1ccc(NC(=O)N2C[C@@H](O)COC[C@@H]3O[C@@H](CC(=O)NCc4ccccc4OC)CC[C@H]32)cc1"
tested_target = "HepG2"
assigned_category = "inactive"

[[record]]
record_smiles = "CC(C)CNC(=O)C(=O)NC(C)C"
tested_target = "HepG2"
assigned_category = "inactive"

